Test: HILIC, HILICON iHILIC-(P) Classic, HILIC, PEEK, 50 × 2.1 mm, 5 µm, 30 °C, 0.12 mL/min, estimated dead time 0.92 min; A: water + 20 mM ammonium carbonate + 10 mM ammonium hydroxide; B: acetonitrile; gradient (min/%B) 0/90 1/90 21/20 21.5/20 23.5/20 24.5/90 26/90 26.5/90
Settings: stereoisomer not certain
Observable: LC retention time (min)

# count of solved cases: 5
{"columns": ["Compound", "LC retention time (min)"],
 "data": [
  ["Nc1nc2ncc(CNc3ccc(C(=O)NC(CCC(=O)O)C(=O)O)cc3)nc2c(=O)[nH]1 (centres undefined)", 14.3],
  ["NC(Cc1ccc(O)cc1)C(=O)O (centres undefined)", 6.96],
  ["O=C(O)C1CCCN1 (centres undefined)", 6.54],
  ["O=P(O)(O)OCC1OC(O)(COP(=O)(O)O)C(O)C1O (centres undefined) [Fructose-1,6-bisphosphate]", 16],
  ["NC(CSSCC(N)C(=O)O)C(=O)O (centres undefined)", 11.6]
]}

I. NC(=O)C1=CN(C2OC(COP(=O)(O)OP(=O)(O)OCC3OC(n4cnc5c(N)ncnc54)C(O)C3O)C(O)C2O)C=CC1 (centres undefined)
II. Nc1ncnc2nc[nH]c12
Would you kindly point out which of I and II has the smaller LC retention time figure? Field: selected label. Fill in the label of the entry you choose.
II

A. O=C(O)CC(O)C(=O)O (centres undefined)
B. NC(CO)C(=O)O (centres undefined)
C. O=C(O)c1cccnc1
Please give the order of these compounds when sorted by LC retention time, largest value leading. Answer format: the labels, ordered as requested.
A, B, C
(A: 12.9 min, B: 8.67 min, C: 2.38 min)

a. O=C1OC(C(O)CO)C(O)=C1O (centres undefined)
b. O=c1ccn(C2OC(COP(=O)(O)OP(=O)(O)OP(=O)(O)O)C(O)C2O)c(=O)[nH]1 (centres undefined)
Would you kindly point out which of a and b has the smaller LC retention time figure? Field: selected label. Fill in the label of the entry you choose.
a
